biological target: EPHB2 (UniProt P29323); experiment: phosphorylation enrichment, bacterial display (enrichment ratio); higher = better substrate or ligand; peptides without Tyr show the background;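 note: 11-residue human phosphosite peptides and single-mutation variants displayed on the E. coli surface, counted by deep sequencing, each peptide's frequency after selection divided by its frequency in the unselected input library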;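 note: frequency after pTyr selection over input frequency; kinase dosed for 20-30% of maximal phosphorylation in three min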
Sequence (P29323 whole entry, looked up): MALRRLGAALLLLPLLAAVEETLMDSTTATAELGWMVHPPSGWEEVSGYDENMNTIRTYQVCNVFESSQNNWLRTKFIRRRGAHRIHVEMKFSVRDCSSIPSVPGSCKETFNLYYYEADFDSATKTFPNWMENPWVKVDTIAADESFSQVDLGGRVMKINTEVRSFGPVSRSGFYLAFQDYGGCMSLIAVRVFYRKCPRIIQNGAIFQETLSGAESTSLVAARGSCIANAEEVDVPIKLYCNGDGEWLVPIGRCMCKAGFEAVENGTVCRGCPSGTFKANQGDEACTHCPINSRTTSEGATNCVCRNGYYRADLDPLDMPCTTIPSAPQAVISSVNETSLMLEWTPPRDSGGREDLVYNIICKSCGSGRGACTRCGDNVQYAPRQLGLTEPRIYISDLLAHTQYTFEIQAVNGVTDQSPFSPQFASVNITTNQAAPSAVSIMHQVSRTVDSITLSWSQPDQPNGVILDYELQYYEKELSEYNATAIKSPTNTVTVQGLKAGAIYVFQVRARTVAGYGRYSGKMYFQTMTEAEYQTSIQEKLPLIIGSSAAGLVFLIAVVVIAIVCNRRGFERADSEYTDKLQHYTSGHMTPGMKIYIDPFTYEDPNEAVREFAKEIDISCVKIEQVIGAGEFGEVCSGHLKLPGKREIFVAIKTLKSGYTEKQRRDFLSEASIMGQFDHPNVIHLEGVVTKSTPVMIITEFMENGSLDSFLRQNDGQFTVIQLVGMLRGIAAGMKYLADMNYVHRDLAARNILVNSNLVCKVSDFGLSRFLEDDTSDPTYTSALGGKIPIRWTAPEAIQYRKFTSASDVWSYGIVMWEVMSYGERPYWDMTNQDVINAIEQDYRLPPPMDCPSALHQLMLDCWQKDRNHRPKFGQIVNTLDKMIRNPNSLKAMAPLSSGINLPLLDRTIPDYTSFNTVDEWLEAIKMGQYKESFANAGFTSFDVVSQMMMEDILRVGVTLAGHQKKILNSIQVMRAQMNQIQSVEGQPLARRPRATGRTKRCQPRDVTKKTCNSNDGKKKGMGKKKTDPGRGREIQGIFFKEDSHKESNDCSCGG
measurementLabel: phosphorylation enrichment
Give the figure only, with no unit attached.

# input Can you share its phosphorylation enrichment? I mean this sequence: FHLLPYTVRAM [PARS2_Y93_YF]
# output 0.633

# input I am curious: what phosphorylation enrichment value has been reported for WFPANYVKLLS [ITSN1_Y1132] ?
# output 1.52

# input Item IKNSGYISQFL [EIF2AK3_Y585_R588Q_YF] has what recorded phosphorylation enrichment?
# output 0.458

# input // query phosphorylation enrichment value for entry GFAGKYIAMVM [CYP19A1_Y441_C437Y_YF]
# output 0.823

# input Consider the sequence ATGLIYIGSHD [AASDH_Y870_T865A] and give its measured phosphorylation enrichment.
# output 0.724

# input Which phosphorylation enrichment value belongs to PRAEWYRDDLL [MYOM2_Y317_V321L] ?
# output 0.726

# input Need phosphorylation enrichment of AEMTGYVMTRW [MAPK13_Y182_V184M] , thanks.
# output 0.578

# input Reported phosphorylation enrichment for KNSSIYVVANI [VNN1_Y134_N131S] : what is it?
# output 0.64

# input What measured phosphorylation enrichment goes with SVVVPYESPEV [TP53_Y220_P222S] ?
# output 0.609

# input Field request: phosphorylation enrichment | item: TLEKYYFAFPG [SLC1A1_Y51_F50Y]
# output 11.1

# input // lookup phosphorylation enrichment for LARDIYKNDFF [ROS1_Y2110_YF]
# output 0.933

# input Which phosphorylation enrichment reading was recorded for the sequence ECKETYHEGEC [PRKN_Y372_A371T] ?
# output 0.728

# input Which value of phosphorylation enrichment has been reported for CLAKMYFSAVE [CP_Y539_D544E_YF] in the records?
# output 0.552

# input Recorded phosphorylation enrichment of VDSNPYSRLMA [UBA5_Y53] , please.
# output 0.488

# input // returns reported phosphorylation enrichment for input HNLNFYKKTTN [FGFR3_Y648_D646N_YF]
# output 0.553

# input Which measured phosphorylation enrichment value corresponds to KDAGDYKYKAK [LRIT3_Y326_C328Y] ?
# output 0.366

# input What value of phosphorylation enrichment has been reported for the following sequence? NVGGKYSFLKV [GRM3_Y478_YF]
# output 0.378

# input // query phosphorylation enrichment value for entry FGEFRYRSVIK [CFTR_Y517_D513G_YF]
# output 0.559

# input Can you share its phosphorylation enrichment? I mean this sequence: SVTCAYSPALN [TP53_Y126_T125A]
# output 0.577

# input Consider the sequence `KPGVNYFFRVS` and give its measured phosphorylation enrichment.
# output 0.472

# input Could you share which phosphorylation enrichment value was measured for DLDPNYVLSSR [CKM_Y125] ?
# output 0.636

# input Fill in the blank: the reported phosphorylation enrichment of TLKVGYTEKQR [EPHA3_Y659] is ____.
# output 0.299

# input sequence: SEPDLYFDPRG [PKP1_Y160_C161Y_YF] ; wanted: its phosphorylation enrichment
# output 11.4

# input Recorded phosphorylation enrichment for YDRREYSRFEK [ITGB7_Y758] , please?
# output 0.483

# input Query (sequence): HSYNSYTYPRL [PAK5_Y316] ; field requested: phosphorylation enrichment
# output 0.508

# input Using the record for IRFPPYTDWNQ [ALDH3B2_Y365_H361R_YF] , report its phosphorylation enrichment.
# output 0.392

# input Which phosphorylation enrichment reading was recorded for the sequence VDSLRYIFPKL [EIF2B3_Y92_A87V_YF] ?
# output 0.38

# input May I ask what phosphorylation enrichment has been recorded for ALAHKYDGGGG [HBB_Y146_H147D] ?
# output 0.655

# input Item WHHTFYNELCV [ACTC1_Y93_R97C] has what recorded phosphorylation enrichment?
# output 0.658

# input Given YTGDIYSSSNL [LZTR1_Y141_N143S] , state its recorded phosphorylation enrichment.
# output 1.53

# input Any idea what its phosphorylation enrichment is? The sequence is SHSMRYFDTAV [HLA-C_Y31]
# output 0.329

# input Quick check: phosphorylation enrichment of NDDDVYLSLEE [VAV2_Y142_R143L] ?
# output 0.627

# input Consider the sequence DLITAYRAHGF [PDHA1_Y118_H113D] and give its measured phosphorylation enrichment.
# output 0.428

# input Would you kindly share the measured phosphorylation enrichment for EFQKKYSDADI [CKAP5_Y1860_K1857Q_YF] ?
# output 0.383

# input Form field: reported phosphorylation enrichment of RIGRKYKRVRF [F8_Y442_K444R]
# output 1.65

# input So what does the record say about phosphorylation enrichment for NRVEIYDKTVE [CYFIP1_Y108_E109D] ?
# output 0.521

# input Request the reported phosphorylation enrichment associated with ITLPIYTKESE [ANK2_Y1455]
# output 0.499

# input Recorded phosphorylation enrichment of GANFEYIIAEK [ECHS1_Y35] , please.
# output 0.455

# input Return reported phosphorylation enrichment; argument: CDSSGYWTPEE [PAPPA2_Y908]
# output 0.654

# input Fill in: phosphorylation enrichment of LHQSTYQRYDV [SLC7A14_Y693] is ___
# output 0.53

# input Entry GGEEFYVHFVG [KAT8_Y90_R86G_YF] has what phosphorylation enrichment?
# output 0.605

# input Quick check: phosphorylation enrichment of EQSGSYIWVLA [DLG1_Y895_P899L] ?
# output 0.641

# input So what's the measured phosphorylation enrichment for this one? RTLTHYKSAVK [ASNS_Y555]
# output 0.411

# input Which phosphorylation enrichment is listed for LLINKYGLSDH [SCP2_Y151_A155D] ?
# output 0.62

# input Would you mind telling me what phosphorylation enrichment value was observed for FETDFYRKGGK [INSR_Y1190_YF] ?
# output 0.639

# input GET /values?readout=phosphorylation enrichment&item= GEAEQYVGGGG [FAT4_Y4980]
# output 0.414

# input # get_value(readout='phosphorylation enrichment', item= SSTAMYSAAGR [PSMB1_Y8_P11A] )
# output 0.364

# input # phosphorylation enrichment lookup, item TCFDKYTGSTF [FN1_Y101_N104S_YF]
# output 0.533

# input I'd like to know its phosphorylation enrichment. The sequence in question is YTNELYMMMRD [FGFR1_Y730_C725Y]
# output 3.13

# input For GHLFACDWISI [BEST1_Y227_Y227C_YF] , what is its reported phosphorylation enrichment?
# output 0.522

----------
target: Hck (UniProt P08631); experiment: phosphorylation enrichment, bacterial display (enrichment ratio); higher = better substrate or ligand; peptides without Tyr show the background
Sequence (P08631 whole entry, looked up): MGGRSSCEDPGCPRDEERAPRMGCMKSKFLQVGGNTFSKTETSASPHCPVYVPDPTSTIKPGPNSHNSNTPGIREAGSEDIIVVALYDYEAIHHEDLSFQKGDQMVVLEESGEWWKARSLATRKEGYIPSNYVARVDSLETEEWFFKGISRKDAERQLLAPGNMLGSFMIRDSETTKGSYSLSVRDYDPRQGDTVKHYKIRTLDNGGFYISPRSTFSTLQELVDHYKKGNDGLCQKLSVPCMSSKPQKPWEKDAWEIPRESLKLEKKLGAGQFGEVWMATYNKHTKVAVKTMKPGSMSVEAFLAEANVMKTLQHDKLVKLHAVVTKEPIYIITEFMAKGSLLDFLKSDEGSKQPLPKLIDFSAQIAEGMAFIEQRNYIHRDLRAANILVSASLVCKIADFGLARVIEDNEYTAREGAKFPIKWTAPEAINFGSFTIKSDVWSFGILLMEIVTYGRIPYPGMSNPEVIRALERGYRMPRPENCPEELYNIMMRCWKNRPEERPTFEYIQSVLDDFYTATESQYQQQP
Values of phosphorylation enrichment greater than or equal to 0.6 map to fulfilled; values below map to not fulfilled.

# input Quick check: does QNTGDDYDLYG [PTPN11_Y62_Y62D] have phosphorylation enrichment greater than or equal to 0.6?
# output fulfilled

# input Is it the case that FETDFYRKGGK [INSR_Y1190_YF] has phosphorylation enrichment reaching or exceeding 0.6?
# output not fulfilled

# input Kindly determine if phosphorylation enrichment recorded for YTNELYMMMRD [FGFR1_Y730_C725Y] is above or exactly 0.6.
# output fulfilled

# input Has GEAEQYVGGGG [FAT4_Y4980] a recorded phosphorylation enrichment greater than or equal to 0.6?
# output not fulfilled

# input Test whether the sequence AVVEPYNSLLT [TUBA1A_Y185_I188L] records phosphorylation enrichment of 0.6 or higher.
# output not fulfilled

# input Determine whether measured phosphorylation enrichment meets or exceeds 0.6 for NVGGKYSFLKV [GRM3_Y478_YF]
# output not fulfilled

# input Check this sequence for phosphorylation enrichment at or above 0.6: ISIFYYAKGQP [MPZ_Y82_H81Y]
# output not fulfilled

# input Is it the case that IINENYDYLKG [NUP98_Y1664] has phosphorylation enrichment reaching or exceeding 0.6?
# output fulfilled

# input Please check the record RLLRGYRQDAY [HLA-A_Y137_F133L] and state if its phosphorylation enrichment is at or above 0.6.
# output fulfilled

# input Please indicate if the recorded phosphorylation enrichment for RGSQQYRALTV [TUBB8_Y281] meets or exceeds 0.6.
# output fulfilled

# input Check if phosphorylation enrichment >= 0.6 (inclusive). Item: NTVLGYFIGCI [GARS1_Y408_R412C]
# output not fulfilled

# input I'd appreciate it if you could say whether RLPNGYGLAYR [DLK1_Y262_S260N] has phosphorylation enrichment at least equal to 0.6.
# output not fulfilled

# input Item HRNNNYEPNLF [BRCA2_Y57_K53R] with phosphorylation enrichment of 0.6 or above?
# output not fulfilled

# input Is the recorded value of phosphorylation enrichment equal to or greater than 0.6 for this sequence? IQTDGYRAPEA [UHMK1_Y197]
# output fulfilled

# input I'd appreciate it if you could say whether SAPDSYIRIGN [SLC38A4_Y27_G29R] has phosphorylation enrichment at least equal to 0.6.
# output not fulfilled

# input Exam item: decide whether the reported phosphorylation enrichment for RELGEYGLQAF [ALDH2_Y497_YF] is at least 0.6.
# output fulfilled

# input # check: phosphorylation enrichment of SDFSRYARTSI [TERT_Y949_S948R_YF] is greater than or equal to 0.6
# output not fulfilled

# input Could you verify whether the entry RKELFYKADGE [SERPINC1_Y272] shows phosphorylation enrichment of no less than 0.6?
# output fulfilled

# input Hi, just wondering whether LSSNLYFRWLT [CNGA3_Y168_P163L_YF] shows phosphorylation enrichment of 0.6 or higher.
# output fulfilled

# input Check if phosphorylation enrichment >= 0.6 (inclusive). Item: DLITAYRAHGF [PDHA1_Y118_H113D]
# output not fulfilled

# input Is it the case that VVVTKYCKEEL [ATP7B_Y1078_A1074V] has phosphorylation enrichment reaching or exceeding 0.6?
# output not fulfilled

# input Item RKVAQYMLENE [SLC16A6_Y224_E221V] with phosphorylation enrichment of 0.6 or above?
# output fulfilled

# input Textbook exercise: given the entry PSAELYSFALP [PDGFRB_Y716_N718Y_YF] , state whether its phosphorylation enrichment is greater than or equal to 0.6.
# output fulfilled

# input Hello, I need to know if GANFEYIIAEK [ECHS1_Y35] has measured phosphorylation enrichment not below 0.6. Thanks!
# output not fulfilled

# input Could you please find out whether VIEYSYTSADG [DHCR7_Y382_C380Y] has phosphorylation enrichment that meets 0.6 or exceeds it?
# output not fulfilled

# input Hello, I need to know if ITLPIYTKESE [ANK2_Y1455] has measured phosphorylation enrichment not below 0.6. Thanks!
# output fulfilled

# input Hi team, for SGVSYYINLCQ [IGF2R_Y2025_N2020S] , is the recorded phosphorylation enrichment at or above 0.6?
# output not fulfilled

# input Does the reported phosphorylation enrichment for PGPQSYPIVTG [PAX5_Y299] fall at or above the 0.6 mark?
# output not fulfilled

# input Has LFQAKYQIRFR [CRLF1_Y272_YF] a recorded phosphorylation enrichment greater than or equal to 0.6?
# output not fulfilled

# input Is the recorded value of phosphorylation enrichment equal to or greater than 0.6 for this sequence? NFSKMYCNPDA [KNL1_Y489_A486S_YF]
# output not fulfilled

# input Decide: phosphorylation enrichment of RQRTAYFSLNT [CDH1_Y68_D72N] >= 0.6?
# output not fulfilled

# input Has PDGHEYIYVDP [PDGFRA_Y572] a recorded phosphorylation enrichment greater than or equal to 0.6?
# output fulfilled

# input Could you verify whether the entry DLDPNYVLSSR [CKM_Y125] shows phosphorylation enrichment of no less than 0.6?
# output not fulfilled

# input Identify whether the reported phosphorylation enrichment of the following sequence is 0.6 or greater: EILDVYIFLGP [GAA_Y340_G335E]
# output fulfilled

# input Can QNTGDYCDLFG [PTPN11_Y62_Y63C_YF] be said to have phosphorylation enrichment at or above 0.6?
# output fulfilled

# input Evaluate VSTKVYKRFPS [BEST1_Y148_A146K] : phosphorylation enrichment at minimum 0.6?
# output not fulfilled

# input Could you verify whether the entry CTTIHYNFMHN [TP53_Y234_C238H_YF] shows phosphorylation enrichment of no less than 0.6?
# output not fulfilled

# input // inclusive: phosphorylation enrichment at least 0.6? input: GLETSYIEDNC [PAH_Y24_Q20L]
# output not fulfilled

# input Determine whether measured phosphorylation enrichment meets or exceeds 0.6 for NETNKYQISVN [FGB_Y368_A365T]
# output not fulfilled

# input Hi, just wondering whether YSIDHYLGKEM [G6PD_Y202_R198S] shows phosphorylation enrichment of 0.6 or higher.
# output not fulfilled

# input Does the reported phosphorylation enrichment for EGNEQYEGFCV [GRIA3_Y451_R450Q_YF] fall at or above the 0.6 mark?
# output fulfilled

# input Kindly determine if phosphorylation enrichment recorded for GFAGKYIAMVM [CYP19A1_Y441_C437Y_YF] is above or exactly 0.6.
# output not fulfilled

# input Please check the record ATDLAYYLVCK [ASL_Y375_R379C] and state if its phosphorylation enrichment is at or above 0.6.
# output fulfilled

# input // inclusive: phosphorylation enrichment at least 0.6? input: CTTIHYNYTCN [TP53_Y234_M237T]
# output not fulfilled

# input Given the entry YPSLPYSPVSS [CAMKK2_Y128_C123Y] , answer whether its phosphorylation enrichment meets or surpasses 0.6.
# output fulfilled

# input Answer whether phosphorylation enrichment of KEDPEYKKKFR [FAM161A_Y278_E273K] is greater than or equal to 0.6.
# output not fulfilled

# input Is phosphorylation enrichment for VNCHQYDGLVG [ATP2A2_Y407_E412G] at or above 0.6?
# output not fulfilled

// data source = the supplement of paper PMC10065799
